- protocolText: Growth inhibition of human HC04 cells assessed as decrease in cell viability after 72 hrs by CellTiter96 AQueous non radioactive cell proliferation assay
parameterMeasured: GI50 at 72 h
Returns: string containing the numeric result and its unit.

C[C@]1(c2ccc(Cl)cc2Cl)OC[C@@H](COc2ccc(N3CCN(C(=O)CCc4cccc(O)c4)CC3)cc2)O1	13.2 µM

In the following, a different compound is considered.
Looking for the measured GI50 at 72 h of `C[C@]1(c2ccc(Cl)cc2Cl)OC[C@@H](COc2ccc(N3CCNCC3)cc2)O1` , can you help?
27.3 µM

----------
- protocolText: Solubility in PBS at pH 7.4 under shaking condition by HPLC analysis
- Type: physicochemical
parameterMeasured: solubility (µM)
Reply with just the number (in µM).

C[C@]1(c2ccc(Cl)cc2Cl)OC[C@@H](COc2ccc(N3CCN(C(=O)CCc4ccc(O)c(O)c4)CC3)cc2)O1	0.84
C[C@]1(c2ccc(Cl)cc2Cl)OC[C@@H](COc2ccc(N3CCN(C(=O)CCc4cccc(O)c4)CC3)cc2)O1	0.03
C[C@]1(c2ccc(Cl)cc2Cl)OC[C@@H](COc2ccc(N3CCN(C(=O)N/N=C/c4ccc(O)cc4)CC3)cc2)O1	0.02

Looking for the measured solubility of `C[C@]1(c2ccc(Cl)cc2Cl)OC[C@@H](COc2ccc(N3CCN(CCCc4cccc(O)c4)CC3)cc2)O1` , can you help?
0.02
